fraction ligated overview
B1: F1*; the commonest letter at each place (parent)
chain: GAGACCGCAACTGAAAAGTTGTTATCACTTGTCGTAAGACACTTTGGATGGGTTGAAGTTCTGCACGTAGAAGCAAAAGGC

Variants of: B1
Assay: fraction ligated after 30 min (ligated reads / total reads); higher = more ligase activity
Settings: with F1*sub RNA substrate (template-directed ligation), 42 °C

// solved cases for fraction ligated follow
Sequence content | fraction ligated
GAGACCGCAACTGAAAAGTTGTTATCACTTGTCGTAAGACACTTTAGATGGGTTGATGTTCTGCACGTAGAAGCAAAAGGC [G46A A57T] | 0.803
GAGACCGCAACTGAAAAGTTGTTATAACTTGTCGTAAGACACTTTGGATGGGTTGAGGTTCTGCACGTAGAAGCAAAAGGC [C26A A57G] | 0.804
GAGACCGCAACTGAAAAGTTGTTATCACTTGTCGTAAGAAACTTTCGATGGGTTGAAGTTCTGCACGTAGAAGCAAAAGGC [C40A G46C] | 0.817
GAGACCGCAACTGAAAAGTTGTTATCACTTGGCGCAAGACACTTTGGATGGGTTGAAGTTCTGCACGTAGAAGCAAAAGGC [T32G T35C] | 0.802

Exercise: Item under review: GAGACCGCAACTGAAAAGTTGTTATCACTTGTCGTAAGATACTTTGGATTGGTTGAAGTTCTGCACGTAGAAGCAAAAGGC [C40T G50T] . Reported fraction ligated?
Key: 0.784

Exercise: Item under review: GAGACCGCAACTGAAAAGTTGTTATCGCTTGTCGCAAGACACTTTGGATGGGTTGAAGTTCTGCACGTAGAAGCAAAAGGC [A27G T35C] . Reported fraction ligated?
Key: 0.812

Exercise: Item under review: GAGACCGCAACTGAAAAGTTGTTATCACTTGTCGTAAAACACTTTGGATGGGTTGGAGTTCTGCACGTAGAAGCAAAAGGC [G38A A56G] . Reported fraction ligated?
Key: 0.783
